TEST SYSTEM: SMARCA4 (Homo sapiens)
Construct: endogenous in cells
PROTOCOL TEXT: Cellular degradation assay, SMARCA4 (Table 1)
Type: cell-based
Values of Dmax greater than or equal to 50% map to Fulfilled; values below map to Not fulfilled.

Look over these answered cases.
[[record]]
molecule = "O=C1CC[C@H](c2ccc(N3CCC(C(=O)N4CCC5(CC4)CN(CC4(c6ccccc6)CCN(c6cnnc(-c7ccccc7O)c6)CC4)C5)CC3)cc2)C(=O)N1 [Example 164]"
answer_label = "Fulfilled"

[[record]]
molecule = "O=C1CC[C@H](c2ccc(N3CCC(CN4CCC5(CC4)CN(C(=O)C4(c6ccccc6)CCN(c6cnnc(-c7ccccc7O)c6)CC4)C5)CC3)nc2)C(=O)N1 [Example 189]"
answer_label = "Fulfilled"

[[record]]
molecule = "O=C1CCC(c2ccc(N3CCC4(CC3)CC(CN3CC5(CCN(C(=O)C6(c7ccccc7)CCN(c7cnnc(-c8ccccc8O)c7)CC6)CC5)C3)C4)cc2)C(=O)N1 (racemic) [Example 137]"
answer_label = "Not fulfilled"

[[record]]
molecule = "O=C1CC[C@@H](c2ccc(N3CCC(CN4CCCC(CNC(=O)C5(c6ccccc6)CCN(c6cnnc(-c7ccccc7O)c6)CC5)C4)CC3)cc2)C(=O)N1 (some centres unmarked) [Example 10]"
answer_label = "Not fulfilled"

[[record]]
molecule = "O=C1CCC(c2ccc(N3CCOC4(CCN(CC(=O)N5CCC6(CC5)CN(C(=O)C5(c7ccccc7)CCN(c7cnnc(-c8ccccc8O)c7)CC5)C6)CC4)C3)cc2)C(=O)N1 (racemic) [Example 152]"
answer_label = "Not fulfilled"

[[record]]
molecule = "CN(C(=O)C1(c2ccnn2C)CCN(c2cnnc(-c3ccccc3O)c2)CC1)C1CCN(CCC2CCN(c3ccc(C4CCC(=O)NC4=O)cc3)CC2)CC1 (racemic) [Example 87]"
answer_label = "Not fulfilled"


Answer whether Dmax of O=C1CC[C@H](c2ccc(OCC3CCN(CC4CCN(C(=O)C5(c6ccccc6)CCN(c6cnnc(-c7ccccc7O)c6)CC5)CC4)CC3)cc2)C(=O)N1 [Example 36] is greater than or equal to 50%. Not fulfilled

Answer whether Dmax of CN(C(=O)C1(Oc2ccn(C)n2)CCN(c2cnnc(-c3ccccc3O)c2)CC1)C1CCN(CC2CCN(c3ccc([C@H]4CCC(=O)NC4=O)cc3)CC2)CC1 [Example 125] is greater than or equal to 50%. Fulfilled

Answer whether Dmax of O=C1CCC(c2ccc(N3CCN(C(=O)CCCN4CCN(C(=O)C5(c6ccccc6)CCN(c6cnnc(-c7ccccc7O)c6)CC5)CC4)CC3)cc2)C(=O)N1 (racemic) [Example 22] is greater than or equal to 50%. Not fulfilled

Answer whether Dmax of CN(C(=O)C1(OC2CC2)CCN(c2cnnc(-c3ccccc3O)c2)CC1)C1CCN(C(=O)CN2CCC(c3ccc([C@@H]4CCC(=O)NC4=O)cc3)CC2)CC1 (racemic) [Example 115] is greater than or equal to 50%. Not fulfilled

---

TEST SYSTEM: SMARCA2 (Homo sapiens)
Construct: endogenous in cells
PROTOCOL TEXT: SMARCA2 Cellular Degradation Assay (Western blot analysis on Jess platform)
Assay type: cell-based
STATED CONDITIONS: cellular degradation
Each entry below carries its reported Dmax.
# answer = value followed by unit

# annotated cases, reported Dmax shown
[[record]]
compound = "O=C1CCC(c2ccc(N3CCC(CN4CC5(C4)CN(C(=O)C4(c6cccc(Cl)c6)CCN(c6cnnc(-c7ccccc7O)c6)CC4)C5)CC3)cc2)C(=O)N1 (racemic)"
measure = "Dmax"
result = "72.8%"

[[record]]
compound = "O=C1CCC(c2ccc(N3CCOC4(CCN(CC(=O)N5CCC6(CC5)CN(C(=O)C5(c7ccccc7)CCN(c7cnnc(-c8ccccc8O)c7)CC5)C6)CC4)C3)cc2)C(=O)N1 (racemic)"
measure = "Dmax"
result = "66.5%"

[[record]]
compound = "O=C1CCC(c2ccc(C3CCN(CC(=O)N4CC5(C4)CN(C(=O)C4(Oc6ccccc6Cl)CCN(c6cnnc(-c7ccccc7O)c6)CC4)C5)CC3)cc2)C(=O)N1 (racemic)"
measure = "Dmax"
result = "83.6%"

[[record]]
compound = "O=C1CC[C@H](c2ccc(N3CCC(CCN4CCC(C(=O)NCC5(c6ccccc6)CCN(c6cnnc(-c7ccccc7O)c6)CC5)C5CC54)CC3)cc2)C(=O)N1 (mixture of isomers)"
measure = "Dmax"
result = "89.5%"


Turning to the following compound.
Answer with reported Dmax of O=C1CCC(Nc2ccc(C3CCN(CC4CCC45CN(C(=O)C4(c6ccccc6)CCN(c6cnnc(-c7ccccc7O)c6)CC4)C5)CC3)cc2)C(=O)N1 (racemic) 71.5%

---

TEST SYSTEM: SMARCA2 (Homo sapiens, UniProt P51531)
Construct: endogenous in cells
Sequence (P51531 whole entry, species assumed): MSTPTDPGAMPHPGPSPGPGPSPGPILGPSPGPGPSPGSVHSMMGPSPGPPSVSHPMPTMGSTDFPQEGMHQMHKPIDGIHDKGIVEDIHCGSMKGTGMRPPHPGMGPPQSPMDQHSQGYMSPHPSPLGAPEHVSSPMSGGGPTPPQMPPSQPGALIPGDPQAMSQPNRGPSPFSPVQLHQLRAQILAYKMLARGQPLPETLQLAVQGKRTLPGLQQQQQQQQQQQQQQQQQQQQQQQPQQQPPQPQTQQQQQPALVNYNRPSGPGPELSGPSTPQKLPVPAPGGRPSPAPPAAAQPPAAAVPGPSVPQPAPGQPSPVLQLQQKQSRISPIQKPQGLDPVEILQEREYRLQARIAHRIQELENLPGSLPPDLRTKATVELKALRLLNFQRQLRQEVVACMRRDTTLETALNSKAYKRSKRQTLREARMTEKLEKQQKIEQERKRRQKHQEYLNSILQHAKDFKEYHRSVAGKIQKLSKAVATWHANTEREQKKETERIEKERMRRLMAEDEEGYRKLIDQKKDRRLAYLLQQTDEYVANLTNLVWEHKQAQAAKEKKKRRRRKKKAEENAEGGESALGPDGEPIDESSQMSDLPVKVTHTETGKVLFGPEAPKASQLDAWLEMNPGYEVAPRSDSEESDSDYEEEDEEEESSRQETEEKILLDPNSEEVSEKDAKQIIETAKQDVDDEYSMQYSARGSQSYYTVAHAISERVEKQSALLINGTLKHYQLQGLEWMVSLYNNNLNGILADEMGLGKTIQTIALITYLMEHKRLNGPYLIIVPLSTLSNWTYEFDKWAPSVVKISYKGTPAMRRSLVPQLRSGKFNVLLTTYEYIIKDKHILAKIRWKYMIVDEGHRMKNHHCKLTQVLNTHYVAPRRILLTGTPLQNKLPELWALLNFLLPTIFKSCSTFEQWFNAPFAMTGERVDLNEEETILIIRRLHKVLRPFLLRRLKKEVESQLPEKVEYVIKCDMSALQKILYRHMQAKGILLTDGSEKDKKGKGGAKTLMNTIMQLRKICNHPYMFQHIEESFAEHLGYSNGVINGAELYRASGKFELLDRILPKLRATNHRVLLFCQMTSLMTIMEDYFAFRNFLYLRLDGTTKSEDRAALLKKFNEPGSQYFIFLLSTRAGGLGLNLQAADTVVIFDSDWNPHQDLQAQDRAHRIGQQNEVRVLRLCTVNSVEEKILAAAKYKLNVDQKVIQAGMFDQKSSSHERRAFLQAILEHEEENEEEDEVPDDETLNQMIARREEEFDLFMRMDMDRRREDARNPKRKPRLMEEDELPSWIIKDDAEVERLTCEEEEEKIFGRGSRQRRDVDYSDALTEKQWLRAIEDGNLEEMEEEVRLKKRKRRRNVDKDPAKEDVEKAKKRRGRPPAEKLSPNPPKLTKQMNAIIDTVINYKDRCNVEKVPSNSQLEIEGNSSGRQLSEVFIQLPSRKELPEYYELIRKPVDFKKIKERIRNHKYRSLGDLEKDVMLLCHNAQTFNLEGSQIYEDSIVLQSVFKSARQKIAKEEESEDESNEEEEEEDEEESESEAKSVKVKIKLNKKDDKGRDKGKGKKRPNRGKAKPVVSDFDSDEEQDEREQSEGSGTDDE
PROTOCOL TEXT: SMARCA2 Cellular Degradation Assay (Western blot analysis on Jess platform)
Type: cell-based
STATED CONDITIONS: cellular degradation
Each entry below carries its reported Dmax.
The figure you give is taken to be in %; do not add the unit.

# annotated cases, reported Dmax shown
[[record]]
compound = "Cc1cc(C2(C(=O)N(C)C3CCN(CC4CCN(c5ccc(C6CCC(=O)NC6=O)cc5)CC4)CC3)CCN(c3cnnc(-c4ccccc4O)c3)CC2)on1 (racemic)"
test_system = "SMARCA2 (Homo sapiens, UniProt P51531)"
measure = "Dmax"
quantitative_result = 76.5

[[record]]
compound = "O=C1CCC(c2ccc(N3CCC(F)(CCN4CC5(C4)CN(C(=O)C4(c6ccccc6)CCN(c6cnnc(-c7ccccc7O)c6)CC4)C5)CC3)cc2)C(=O)N1 (racemic)"
test_system = "SMARCA2 (Homo sapiens, UniProt P51531)"
measure = "Dmax"
quantitative_result = 73.6

[[record]]
compound = "COc1cccc(C2(C(=O)NC3CCN(CC4CCN(c5ccc([C@H]6CCC(=O)NC6=O)cc5)CC4)C4(CCC4)C3)CCN(c3cnnc(-c4ccccc4O)c3)CC2)c1 (some centres unmarked)"
test_system = "SMARCA2 (Homo sapiens, UniProt P51531)"
measure = "Dmax"
quantitative_result = 86.6

[[record]]
compound = "O=C1CCC(c2ccc(N3CCC(F)(CN4CCC(NC(=O)C5(c6ccccc6)CCN(c6cnnc(-c7ccccc7O)c6)CC5)CC4)CC3)cc2)C(=O)N1 (racemic)"
test_system = "SMARCA2 (Homo sapiens, UniProt P51531)"
measure = "Dmax"
quantitative_result = 83.4


Answer with reported Dmax of Cn1c(=O)n(C2CCC(=O)NC2=O)c2ccc(N3CCC(CN4CCC(NC(=O)C5(c6ccccc6)CCN(c6cnnc(-c7ccccc7O)c6)CC5)CC4)CC3)cc21 (racemic) 92

---

TEST SYSTEM: SMARCA4 (Homo sapiens, UniProt P51532)
Construct: endogenous in cells
Sequence (P51532 whole entry, species assumed): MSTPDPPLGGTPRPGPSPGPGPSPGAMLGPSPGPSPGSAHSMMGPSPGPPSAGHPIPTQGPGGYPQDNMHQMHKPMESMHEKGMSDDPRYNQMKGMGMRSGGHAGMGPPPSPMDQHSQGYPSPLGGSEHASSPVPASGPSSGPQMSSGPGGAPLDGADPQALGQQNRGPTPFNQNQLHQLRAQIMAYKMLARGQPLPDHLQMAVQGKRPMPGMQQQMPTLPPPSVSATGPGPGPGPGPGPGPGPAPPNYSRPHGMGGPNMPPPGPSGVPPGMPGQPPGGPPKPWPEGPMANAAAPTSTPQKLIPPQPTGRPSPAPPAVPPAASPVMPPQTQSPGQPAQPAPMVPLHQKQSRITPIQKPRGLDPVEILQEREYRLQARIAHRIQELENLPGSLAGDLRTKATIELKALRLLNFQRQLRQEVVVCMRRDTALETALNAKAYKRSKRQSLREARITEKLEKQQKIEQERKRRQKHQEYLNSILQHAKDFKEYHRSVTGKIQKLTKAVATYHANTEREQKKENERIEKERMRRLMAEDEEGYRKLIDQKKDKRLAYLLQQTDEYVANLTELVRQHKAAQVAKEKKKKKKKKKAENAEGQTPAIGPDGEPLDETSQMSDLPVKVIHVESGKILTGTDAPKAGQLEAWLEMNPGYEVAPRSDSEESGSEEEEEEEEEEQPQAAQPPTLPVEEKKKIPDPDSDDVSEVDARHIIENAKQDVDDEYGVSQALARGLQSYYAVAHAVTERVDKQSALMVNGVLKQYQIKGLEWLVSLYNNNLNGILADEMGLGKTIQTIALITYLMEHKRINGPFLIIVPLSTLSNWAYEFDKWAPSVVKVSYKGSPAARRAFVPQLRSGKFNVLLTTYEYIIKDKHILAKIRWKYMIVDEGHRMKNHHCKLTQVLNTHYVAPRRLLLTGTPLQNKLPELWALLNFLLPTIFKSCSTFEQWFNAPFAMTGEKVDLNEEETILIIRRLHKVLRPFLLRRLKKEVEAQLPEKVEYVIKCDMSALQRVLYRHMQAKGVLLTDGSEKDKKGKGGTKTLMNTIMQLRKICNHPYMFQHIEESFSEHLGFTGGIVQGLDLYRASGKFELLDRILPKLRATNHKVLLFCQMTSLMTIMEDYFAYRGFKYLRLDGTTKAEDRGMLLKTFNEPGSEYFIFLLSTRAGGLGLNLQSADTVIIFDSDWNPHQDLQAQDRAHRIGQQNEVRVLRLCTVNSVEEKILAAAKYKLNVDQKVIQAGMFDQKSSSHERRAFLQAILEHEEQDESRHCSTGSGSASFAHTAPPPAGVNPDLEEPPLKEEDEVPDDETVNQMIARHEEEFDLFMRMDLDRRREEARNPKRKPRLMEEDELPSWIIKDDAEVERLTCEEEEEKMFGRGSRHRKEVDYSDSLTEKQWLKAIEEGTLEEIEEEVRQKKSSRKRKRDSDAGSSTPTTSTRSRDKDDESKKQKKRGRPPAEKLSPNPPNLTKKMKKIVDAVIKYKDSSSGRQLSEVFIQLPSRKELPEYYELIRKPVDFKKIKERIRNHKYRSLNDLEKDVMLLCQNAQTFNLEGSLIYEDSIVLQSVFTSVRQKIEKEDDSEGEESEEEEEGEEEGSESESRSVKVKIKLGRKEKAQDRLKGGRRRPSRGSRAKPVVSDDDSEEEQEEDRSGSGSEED
PROTOCOL TEXT: Cellular degradation assay, SMARCA4 (Table 1)
Format: cell-based
MEASURE: Dmax (%)
The figure you give is taken to be in %; do not add the unit.

# annotated cases, reported Dmax shown
[[record]]
molecule = "COc1cccc(C2(C(=O)NC3CCN(CC4CCN(c5ccc([C@H]6CCC(=O)NC6=O)cc5)CC4)C4(CCC4)C3)CCN(c3cnnc(-c4ccccc4O)c3)CC2)c1 (some centres unmarked)"
quantitative_result = 62

[[record]]
molecule = "O=C1CC[C@H](c2ccc(N3CCC(CN4CC5(C4)CN(C(=O)C4(Oc6ccccc6Cl)CCN(c6cnnc(-c7ccccc7O)c6)CC4)C5)CC3)cc2)C(=O)N1"
quantitative_result = 79.4

[[record]]
molecule = "O=C1CC[C@H](c2ccc(N3CCC(CN4CCC(NC(=O)C5(c6ccccc6)CCN(c6cnnc(-c7ccccc7O)c6)CC5)CC45CCC5)CC3)cc2)C(=O)N1 (some centres unmarked)"
quantitative_result = 53.7

[[record]]
molecule = "CCCN(C(=O)C1(c2ccccc2)CCN(c2cnnc(-c3ccccc3O)c2)CC1)C1CCN(CCC2CCN(c3ccc([C@H]4CCC(=O)NC4=O)cc3)CC2)CC1"
quantitative_result = 66.4


Turning to the following molecule.
Answer with reported Dmax of `O=C1CC[C@H](c2ccc(N3CCC(CN4CCC5(CC4)CN(C(=O)C4(c6ccccc6)CCN(c6cnnc(-c7ccccc7O)c6)CC4)C5)CC3)cc2)C(=O)N1` 70.3

---

TEST SYSTEM: SMARCA2 (Homo sapiens)
Construct: endogenous in cells
PROTOCOL TEXT: SMARCA2 Cellular Degradation Assay (Western blot analysis on Jess platform)
Type: cell-based
STATED CONDITIONS: cellular degradation
MEASURE: Dmax (%)
The figure you give is taken to be in %; do not add the unit.

# annotated cases, reported Dmax shown
[[record]]
molecule = "COc1ccccc1C1(C(=O)N2CC3(C2)CN(C2COC4(CCN(c5ccc([C@H]6CCC(=O)NC6=O)cc5)CC4)C2)C3)CCN(c2cnnc(-c3ccccc3O)c2)CC1 (mixture of isomers)"
quantitative_result = 78.3

[[record]]
molecule = "CN(C(=O)C1(c2ccccc2)CCN(c2cnnc(-c3ccccc3O)c2)CC1)C1CCN([C@@H]2COC3(CCN(c4ccc([C@H]5CCC(=O)NC5=O)cc4)CC3)C2)CC1 (single isomer, unassigned)"
quantitative_result = 83

[[record]]
molecule = "O=C1CC[C@@H](c2ccc(N3CCC(CN4CCC(NCC5(c6ccccc6)CCN(c6cnnc(-c7ccccc7O)c6)CC5)CC4)CC3)cc2)C(=O)N1"
quantitative_result = 74.2


Turning to the following molecule.
Answer with reported Dmax of O=C1CCC(c2ccc(N3CCC(CN4CCN(C(=O)C5(c6ccccc6)CCN(c6cnnc(-c7ccccc7O)c6)CC5)CC4)CC3)cc2)C(=O)N1 (racemic) 63.6
